tested on: OVCAR-8; test: NCI tumour cell line growth inhibition, 48 h
Activity calls are given as the source filed them. Cut-off read from the data, not from the text of the source: active = GI50 up to about 1.1 µM and inactive = higher. Non-standard residues stand in square brackets, D forms with d. Residues, ends and D or L forms follow the SMILES beside them. *: point of attachment. Benzoyl(4-OMe) = COc1ccc(C(=O)*)cc1; 2Thi = N[CH](Cc1cccs1)C(=O)O
TEST_READOUT: GI50

COMPOUND	TEST_READOUT	REPORTED_MEASUREMENT
CC1=NN(C(=O)c2ccccc2O)C(=O)/C1=C/c1c(O)ccc2ccccc12	GI50	1.01 µM (active)
O/N=C/C1c2ccccc2-c2ccccc21	GI50	19.6 µM (inactive)
CCC(C)C(NC(=O)C(Cc1cccs1)NC(=O)C(CC(C)C)NC(=O)C(CC(C)C)NC(=O)C(CCCCN)NC(=O)C(CCCNC(=N)N)NC(=O)c1ccc(OC)cc1)C(=O)NC(CC(C)C)C(N)=O (centres undefined) ({Benzoyl(4-OMe)}-RKLL[2Thi]IL-NH2; configuration not given here)	GI50	> 100 µM (inactive)

// next item, GI50 requested
Exam item: Identify the reported GI50 for the following entry. CCOC(=O)c1c[nH]c2cc3c(cc2c1=O)CCS3(=O)=O.CCOC(=O)c1c[nH]c2ccc3c(c2c1=O)S(=O)(=O)CC3
Marked response: > 100 µM (inactive)

# credit: ChEMBL document CHEMBL1201862
